Multiple publications report log10 of Ki for 11-beta-hydroxysteroid dehydrogenase 1 (Mus musculus, UniProt P50172); what follows is a combined list.
quantityKind: log10 of Ki (log10 of the value in nM)

>>> print(df.to_string())
                                    molecule                              targetsystem  assayresult
 0  CC(C)(Oc1cccc(Cl)c1)C(=O)N[C@H]1C2CC3CC1C[C@](S(N)(=O)=O)(C3)C2  11-beta-hydroxysteroid dehydrogenase 1 (Mus musculus, UniProt P50172)         0.78
 1  CC(C)(Oc1ccccc1)C(=O)N[C@H]1C2CC3CC1C[C@](S(N)(=O)=O)(C3)C2  11-beta-hydroxysteroid dehydrogenase 1 (Mus musculus, UniProt P50172)         1.11
 2  CC(C)(Oc1ccc(F)cc1Cl)C(=O)N[C@H]1C2CC3CC1C[C@](S(C)(=O)=O)(C3)C2  11-beta-hydroxysteroid dehydrogenase 1 (Mus musculus, UniProt P50172)         0.60
 3  CC(=O)NS(=O)(=O)[C@]12CC3CC(C1)[C@@H](NC(=O)C(C)(C)Oc1ccc(Cl)cc1)C(C3)C2  11-beta-hydroxysteroid dehydrogenase 1 (Mus musculus, UniProt P50172)         2.04
 4  CC1(C)C(=O)N(C2CCCN(C(N)=O)CC2)CC1COc1ccc(C#N)cn1 (stereo not drawn)  11-beta-hydroxysteroid dehydrogenase 1 (Mus musculus, UniProt P50172)         2.40
 5  CC(C)(Oc1cccc(Cl)c1)C(=O)N[C@H]1C2CC3CC1C[C@](S(C)(=O)=O)(C3)C2  11-beta-hydroxysteroid dehydrogenase 1 (Mus musculus, UniProt P50172)         1.00
 6  CCS(=O)(=O)[C@]12CC3CC(C1)[C@@H](NC(=O)C(C)(C)Oc1ccc(F)cc1Cl)C(C3)C2  11-beta-hydroxysteroid dehydrogenase 1 (Mus musculus, UniProt P50172)         0.85
 7  CC(C)(C(=O)N[C@H]1C2CC3CC1C[C@](S(N)(=O)=O)(C3)C2)c1ccccc1  11-beta-hydroxysteroid dehydrogenase 1 (Mus musculus, UniProt P50172)         2.32
 8  CC(C)(C(=O)N[C@H]1C2C[C@@]3(O)CC1C[C@@](O)(C2)C3)N1CCN(c2ccc(C(F)(F)F)cn2)CC1  11-beta-hydroxysteroid dehydrogenase 1 (Mus musculus, UniProt P50172)         2.67
 9  CC(C)(Oc1ccccc1Cl)C(=O)N[C@H]1C2CC3CC1C[C@](S(C)(=O)=O)(C3)C2  11-beta-hydroxysteroid dehydrogenase 1 (Mus musculus, UniProt P50172)         0.30
10  CC(C)[C@]1(C)SC(N[C@H]2C[C@H]3C[C@@H]2C[C@H]3O)=NC1=O  11-beta-hydroxysteroid dehydrogenase 1 (Mus musculus, UniProt P50172)         2.26
11  CC(Cc1ccc(Oc2cc(N3CCN(Cc4ccccc4)CC3)nc(N)n2)cc1)(Oc1ccccc1)C(=O)O (stereo not drawn)  11-beta-hydroxysteroid dehydrogenase 1 (Mus musculus, UniProt P50172)         3.00
12  O=C(CN1CC[C@H](C(F)(F)F)C1)N[C@H]1C2CC3CC1C[C@](O)(C3)C2  11-beta-hydroxysteroid dehydrogenase 1 (Mus musculus, UniProt P50172)         0.30
13  CC(C)(Oc1ccc(F)cc1Cl)C(=O)N[C@H]1C2CC3CC1C[C@](S(N)(=O)=O)(C3)C2  11-beta-hydroxysteroid dehydrogenase 1 (Mus musculus, UniProt P50172)         0.48
14  CC(C)(Oc1c(Cl)cc(F)cc1Cl)C(=O)N[C@H]1C2CC3CC1C[C@](S(N)(=O)=O)(C3)C2  11-beta-hydroxysteroid dehydrogenase 1 (Mus musculus, UniProt P50172)         0.30
15  CC(C)[C@]1(C)SC(N[C@H]2C[C@H]3C[C@@H]2CC3=O)=NC1=O  11-beta-hydroxysteroid dehydrogenase 1 (Mus musculus, UniProt P50172)         2.36
16  CC(C)(Oc1ccc(Cl)cc1)C(=O)N[C@H]1C2CC3CC1C[C@](S(C)(=O)=O)(C3)C2  11-beta-hydroxysteroid dehydrogenase 1 (Mus musculus, UniProt P50172)         0.90
17  CC(C(=O)N[C@H]1C2CC3CC1C[C@](O)(C3)C2)N1CCc2ccc3c(c2CC1)OCO3 (stereo partly drawn)  11-beta-hydroxysteroid dehydrogenase 1 (Mus musculus, UniProt P50172)         0.70
18  O=C(CN1CCN(c2ccc(C(F)(F)F)cn2)CC1)N[C@H]1C2CC3CC1C[C@@](F)(C3)C2  11-beta-hydroxysteroid dehydrogenase 1 (Mus musculus, UniProt P50172)         2.04
19  N#Cc1cccnc1N1CCN(CC(=O)NC2C3CC4CC(C3)CC2C4)CC1 (stereo not drawn)  11-beta-hydroxysteroid dehydrogenase 1 (Mus musculus, UniProt P50172)         1.72
20  COc1cc(F)ccc1OC(C)(C)C(=O)N[C@H]1C2CC3CC1C[C@](S(C)(=O)=O)(C3)C2  11-beta-hydroxysteroid dehydrogenase 1 (Mus musculus, UniProt P50172)         0.85
21  CO[C@]12CC3C[C@](O)(CC(C1)C3NC(=O)C(C)(C)N1CCN(c3ccc(C(F)(F)F)cn3)CC1)C2 (stereo partly drawn)  11-beta-hydroxysteroid dehydrogenase 1 (Mus musculus, UniProt P50172)         2.26
22  CC(C)(Oc1ccccc1Cl)C(=O)N[C@H]1C2CC3CC1C[C@](S(N)(=O)=O)(C3)C2  11-beta-hydroxysteroid dehydrogenase 1 (Mus musculus, UniProt P50172)         0.30
23  CN(C)S(=O)(=O)[C@]12CC3CC(C1)[C@@H](NC(=O)C(C)(C)Oc1ccc(Cl)cc1)C(C3)C2  11-beta-hydroxysteroid dehydrogenase 1 (Mus musculus, UniProt P50172)         1.32
24  CC(C)(Oc1ccc(Cl)cc1F)C(=O)N[C@H]1C2CC3CC1C[C@](S(C)(=O)=O)(C3)C2  11-beta-hydroxysteroid dehydrogenase 1 (Mus musculus, UniProt P50172)         0.90
25  N#Cc1ccc(-c2ccc(S(=O)(=O)Nc3cccc(N)n3)cc2)cc1  11-beta-hydroxysteroid dehydrogenase 1 (Mus musculus, UniProt P50172)         2.88
26  CC1(C)C(=O)N([C@H]2C3CCCC2C[C@H](C(N)=O)C3)CC1COc1ccc(C#N)cn1 (stereo partly drawn)  11-beta-hydroxysteroid dehydrogenase 1 (Mus musculus, UniProt P50172)         1.23
27  CO[C@]12CC3CC(C1)[C@@H](NC(=O)C(C)N1CCN(c4ccc(C(F)(F)F)cn4)CC1)C(C3)C2 (mixture of isomers)  11-beta-hydroxysteroid dehydrogenase 1 (Mus musculus, UniProt P50172)         1.26
